Target: XIAP His-BIR2 (124-240/C202A/C213G) (Homo sapiens, UniProt P98170, C202A/C213G)
Construct: additions of His-BIR2 (124-240/C202A/C213G), Biotinylated SMAC peptide
Sequence (P98170 124-240 C202A/C213G): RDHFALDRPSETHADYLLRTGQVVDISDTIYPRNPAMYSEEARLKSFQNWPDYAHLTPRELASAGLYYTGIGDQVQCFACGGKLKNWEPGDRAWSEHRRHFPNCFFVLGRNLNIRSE
Experiment: XIAP-BIR2/SMAC Peptide AlphaScreen Assay
Format: binding
Conditions: XIAP BIR2, AlphaScreen, Table 2; read-out: BIR2 IC50
Please go through the items and note down their IC50.

Entry "CN[C@@H](C)C(=O)N[C@H](C(=O)N1C[C@@H]2C[C@H]1C(=O)N[C@@H](Cc1ccccc1)C(=O)N[C@H](C(=O)N1CCN(C)CC1)Cc1ccc(cc1)OCc1cn(nn1)[C@H]1C[C@@H](C(=O)N[C@@H](Cc3ccccc3)C(=O)N[C@H](C(=O)N3CCN(C)CC3)Cc3ccc(cc3)OCc3cn2nn3)N(C(=O)[C@@H](NC(=O)[C@H](C)NC)C(C)C)C1)C(C)C" : reported IC50 = ?
> 12 µM

Okay, and "CN[C@@H](C)C(=O)N[C@H](C(=O)N1C[C@@H]2C[C@H]1C(=O)N[C@@H](Cc1ccc(-c3ccccc3)cc1)C(=O)N[C@H](C(=O)O)Cc1ccc(cc1)COc1cn(nn1)[C@H]1C[C@@H](C(=O)N[C@@H](Cc3ccc(-c4ccccc4)cc3)C(=O)N[C@H](C(=O)O)Cc3ccc(cc3)OCc3cn2nn3)N(C(=O)[C@@H](NC(=O)[C@H](C)NC)C(C)C)C1)C(C)C" ?
< 2 µM

Okay, and "CN[C@@H](C)C(=O)N[C@H](C(=O)N1C[C@@H]2C[C@H]1C(=O)N[C@@H](Cc1ccccc1)C(=O)N[C@H](C(=O)O)Cc1ccc(cc1)OCc1cn(nn1)[C@H]1C[C@@H](C(=O)N[C@@H](Cc3ccccc3)C(=O)N[C@H](C(=O)O)Cc3ccc(cc3)OCc3cn2nn3)N(C(=O)[C@@H](NC(=O)[C@H](C)NC)C(C)C)C1)C(C)C" ?
< 2 µM

Okay, and "CN[C@@H](C)C(=O)N[C@H](C(=O)N1C[C@@H]2C[C@H]1C(=O)N[C@@H](Cc1ccc(OC)c(OC)c1)C(=O)N[C@H](C(=O)O)Cc1ccc(cc1)OCc1cn(nn1)[C@H]1C[C@@H](C(=O)N[C@@H](Cc3ccc(OC)c(OC)c3)C(=O)N[C@H](C(=O)O)Cc3ccc(cc3)OCc3cn2nn3)N(C(=O)[C@@H](NC(=O)[C@H](C)NC)C2CCCCC2)C1)C1CCCCC1" ?
> 12 µM

Okay, and "CN[C@@H](C)C(=O)NCC1(C(=O)N2C[C@@H]3C[C@H]2C(=O)N[C@@H](Cc2ccccc2)C(=O)N[C@H](C(=O)O)Cc2ccc(cc2)OCc2cn(nn2)[C@H]2C[C@@H](C(=O)N[C@@H](Cc4ccccc4)C(=O)N[C@H](C(=O)O)Cc4ccc(cc4)OCc4cn3nn4)N(C(=O)C3(CNC(=O)[C@H](C)NC)CC3)C2)CC1" ?
> 12 µM

Okay, and "CN[C@@H](C)C(=O)N[C@H](C(=O)N1C[C@@H]2C[C@H]1C(=O)N[C@@H](COCc1ccccc1)C(=O)N[C@H](C(=O)O)Cc1ccc(cc1)OCc1cn(nn1)[C@H]1C[C@@H](C(=O)N[C@@H](COCc3ccccc3)C(=O)N[C@H](C(=O)O)Cc3ccc(cc3)OCc3cn2nn3)N(C(=O)[C@@H](NC(=O)[C@H](C)NC)C(C)C)C1)C(C)C" ?
2 to 12 µM

Okay, and "CN[C@@H](C)C(=O)N[C@H](C(=O)N1C[C@@H]2C[C@H]1C(=O)N[C@@H](Cc1ccc(C(F)(F)F)cc1)C(=O)N[C@H](C(=O)O)Cc1ccc(cc1)COc1cn(nn1)[C@H]1C[C@@H](C(=O)N[C@@H](Cc3ccc(C(F)(F)F)cc3)C(=O)N[C@H](C(=O)O)Cc3ccc(cc3)OCc3cn2nn3)N(C(=O)[C@@H](NC(=O)[C@H](C)NC)C(C)C)C1)C(C)C" ?
> 12 µM

Okay, and "C=CCOc1ccc(C[C@@H]2NC(=O)[C@@H]3C[C@@H](CN3C(=O)[C@@H](NC(=O)[C@H](C)NC)C(C)C)n3cc(nn3)COc3ccc(cc3)C[C@@H](C(=O)O)NC(=O)[C@H](Cc3ccc(OCC=C)cc3)NC(=O)[C@@H]3C[C@@H](CN3C(=O)[C@@H](NC(=O)[C@H](C)NC)C(C)C)n3cc(nn3)COc3ccc(cc3)C[C@@H](C(=O)O)NC2=O)cc1" ?
2 to 12 µM

Okay, and "CN[C@@H](C)C(=O)N[C@H](C(=O)N1C[C@@H]2C[C@H]1C(=O)N[C@@H](Cc1cccc3ccccc13)C(=O)N[C@H](C(=O)O)Cc1ccc(cc1)COc1cn(nn1)[C@H]1C[C@@H](C(=O)N[C@@H](Cc3cccc4ccccc34)C(=O)N[C@H](C(=O)O)Cc3ccc(cc3)OCc3cn2nn3)N(C(=O)[C@@H](NC(=O)[C@H](C)NC)C(C)C)C1)C(C)C" ?
< 2 µM

Okay, and "CN[C@@H](C)C(=O)N[C@H](C(=O)N1C[C@@H]2C[C@H]1C(=O)N[C@@H](Cc1cccc(C(F)(F)F)c1)C(=O)N[C@H](C(=O)O)Cc1ccc(cc1)COc1cn(nn1)[C@H]1C[C@@H](C(=O)N[C@@H](Cc3cccc(C(F)(F)F)c3)C(=O)N[C@H](C(=O)O)Cc3ccc(cc3)OCc3cn2nn3)N(C(=O)[C@@H](NC(=O)[C@H](C)NC)C(C)C)C1)C(C)C" ?
2 to 12 µM

Okay, and "CN[C@@H](C)C(=O)N[C@H](C(=O)N1C[C@@H]2C[C@H]1C(=O)N[C@@H](CC1CCCCC1)C(=O)N[C@H](C(=O)O)Cc1ccc(cc1)OCc1cn(nn1)[C@H]1C[C@@H](C(=O)N[C@@H](CC3CCCCC3)C(=O)N[C@H](C(=O)O)Cc3ccc(cc3)OCc3cn2nn3)N(C(=O)[C@@H](NC(=O)[C@H](C)NC)C(C)C)C1)C(C)C" ?
2 to 12 µM

----------
Target: His-BIR3 (241-356, XIAP) (Homo sapiens, UniProt P98170)
Construct: additions of His-BIR3 (241-356, XIAP), fluorescein labeled SMAC peptide
Sequence (P98170 241-356): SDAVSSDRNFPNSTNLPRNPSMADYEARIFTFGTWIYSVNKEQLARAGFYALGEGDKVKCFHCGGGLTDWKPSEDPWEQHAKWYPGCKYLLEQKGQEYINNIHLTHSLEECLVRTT
Assay: XIAP-BIR3/SMAC Homogeneous Time Resolved Fluorescence (HTRF) Assay
Details: Table 4
Please go through the items and note down their IC50.

Entry CN[C@@H](C)C(=O)N[C@H](C(=O)N1C[C@@H]2C[C@H]1C(=O)N[C@@H](Cc1ccc3ccccc3c1)C(=O)N[C@H](C(=O)O)Cc1ccc(cc1)OCc1cn(nn1)[C@H]1C[C@@H](C(=O)N[C@@H](Cc3ccc4ccccc4c3)C(=O)N[C@H](C(=O)N[C@@H](CC(=O)O)C(=O)N[C@H](CCSC)C(=O)O)Cc3ccc(cc3)OCc3cn2nn3)N(C(=O)[C@@H](NC(=O)[C@H](C)NC)C(C)(C)C)C1)C(C)(C)C [Compound 1038] : reported IC50 = ?
10 to 100 nM

Okay, and CN[C@@H](C)C(=O)N[C@H](C(=O)N1C[C@@H]2C[C@H]1C(=O)N[C@@H](Cc1ccc3ccccc3c1)C(=O)N[C@H](C(=O)O)Cc1ccc(cc1)OCc1cn(nn1)[C@H]1C[C@@H](C(=O)N[C@@H](Cc3ccc4ccccc4c3)C(=O)N[C@H](C(=O)NS(=O)(=O)CC3CC3)Cc3ccc(cc3)OCc3cn2nn3)N(C(=O)[C@@H](NC(=O)[C@H](C)NC)C(C)(C)C)C1)C(C)(C)C [Compound 1037] ?
10 to 100 nM

Okay, and CN[C@@H](C)C(=O)N[C@H](C(=O)N1C[C@@H]2C[C@H]1C(=O)N[C@@H](Cc1ccc3ccccc3c1)C(=O)N[C@H](C(=O)O)Cc1ccc(cc1)OCc1cn(nn1)[C@H]1C[C@@H](C(=O)N[C@@H](Cc3ccc4ccccc4c3)C(=O)N[C@H](C(=O)NCC[C@@H](O)C[C@@H](O)CC(=O)O)Cc3ccc(cc3)OCc3cn2nn3)N(C(=O)[C@@H](NC(=O)[C@H](C)NC)C(C)(C)C)C1)C(C)(C)C [Compound 1044] ?
< 10 nM

Okay, and CN[C@@H](C)C(=O)N[C@H](C(=O)N1C[C@@H]2C[C@H]1C(=O)N[C@@H](Cc1ccc3ccccc3c1)C(=O)N[C@H](C(=O)O)Cc1ccc(cc1)OCc1cn(nn1)[C@H]1C[C@@H](C(=O)N[C@@H](Cc3ccc4ccccc4c3)C(=O)N[C@H](C(=O)NCc3cc(F)c(O)c(F)c3)Cc3ccc(cc3)OCc3cn2nn3)N(C(=O)[C@@H](NC(=O)[C@H](C)NC)C(C)(C)C)C1)C(C)(C)C [Compound 1041] ?
10 to 100 nM

Okay, and CN[C@@H](C)C(=O)N[C@H](C(=O)N1C[C@@H]2C[C@H]1C(=O)N[C@@H](Cc1ccc3ccccc3c1)C(=O)N[C@H](C(=O)O)Cc1ccc(cc1)OCCCc1cn(nn1)[C@H]1C[C@@H](C(=O)N[C@@H](Cc3ccc4ccccc4c3)C(=O)N[C@H](C(=O)O)Cc3ccc(cc3)OCCCc3cn2nn3)N(C(=O)[C@@H](NC(=O)[C@H](C)NC)C(C)(C)C)C1)C(C)(C)C [Compound 1011] ?
< 10 nM
